Cited source for all entries: PubChem BioAssay (NCI)

tested on: SNB-75 CNS; assay: NCI tumour cell line growth inhibition, 48 h
property_label: TGI

-- ask Send back SNB-75 CNS TGI of CCc1nc(N)nc(N)c1-c1ccc(Cl)c(N=[N+]=[N-])c1 only.
-- reply > 87.3 µM

-- ask Give the observed TGI of CC(=O)c1ccc(NC(=O)COC(=O)c2cccc3c(=O)c4ccccc4[nH]c23)cc1 for SNB-75 CNS.
-- reply 31.5 µM

-- ask Using SNB-75 CNS as the test system, report measured TGI of Cn1cc(C(=O)c2ccccc2)cc(C(=O)c2ccccc2)c1=O .
-- reply > 100 µM

-- ask Send back SNB-75 CNS TGI of C[C@H](CCC1SC1(C)C)C1CCC2(C)C3=C(CC[C@]12C)[C@@]1(C)CC[C@H](O)C(C)(C)C1CC3 (some centres undefined) only.
-- reply > 100 µM

-- ask Tell me TGI of COc1cc2c(cc1OC)C(=O)/C(=C/c1cc(C)cc(C)c1)C2 when tested on SNB-75 CNS.
-- reply > 100 µM

-- ask State recorded TGI with SNB-75 CNS, entry CC(C)=CC(=O)c1[nH]c2ccccc2c1CC(=O)NCCc1cncn1C , no comment.
-- reply > 100 µM

-- ask Supply TGI measured with SNB-75 CNS for Cn1cc(S(=O)(=O)NC(=O)Nc2ccc(Cl)cc2)c(=O)c2ccc(F)cc21 .
-- reply > 100 µM

-- ask Lab note: SNB-75 CNS assay, enter TGI for COC1C(N(C)C)=C(c2ccccc2)C(=O)N2CCc3ccccc3C12 (centres undefined) here
-- reply > 100 µM

-- ask Give TGI only, for COc1cc2c(/C=C3/C(=O)N(C)c4ccc(O)cc43)c(Cl)[nH]c2cc1C , using SNB-75 CNS data.
-- reply 20.8 µM

* * *

system: HOP-92 NSCLC; experiment: NCI tumour cell line growth inhibition, 48 h
property_label: TGI

-- ask Note TGI for the molecule shown: OC1(c2ccc(Cl)cc2)c2ccccc2-c2nc3ccccc3n21 (stereo not given)
-- reply > 100 µM

-- ask Output TGI of C=C=CC(NC(=O)c1ccccc1)(C(=O)O)C(F)(F)F (stereo not given)
-- reply > 100 µM

-- ask Specify reported TGI for the molecule shown: COc1cc2c(c(OC)c1OC)-c1ccc(N=NC(N)=S)c(=O)cc1[C@@H](NC(C)=O)CC2
-- reply 98.8 µM

-- ask Tell me measured TGI for CCN1CCC(CNC(=O)c2ccc(N)cc2)N1CC (stereo not given) please.
-- reply > 100 µM

-- ask Give me measured TGI, please, for this molecule: CN(C)c1ccc(/C=N/S(=O)(=O)c2ccc(-n3c(-c4ccccc4)nc4c(Br)cc(Br)cc4c3=O)cc2)cc1
-- reply 71.6 µM

-- ask Supply TGI value. Item: O=C(O)c1c(Br)c(Br)c(Br)c(Br)c1C1c2ccc(O)cc2Oc2cc(O)ccc21
-- reply > 100 µM

-- ask Indicate the recorded TGI value for this molecule: COc1ccc(C(=O)C#Cc2c[nH]c(=O)[nH]c2=O)cc1
-- reply 41.8 µM

-- ask State, in one line, measured TGI of Nc1nc(N)c2nc3c(nc2n1)CCCCCCCCCC3
-- reply > 100 µM

-- ask Report TGI for C[C@H](CCC1SC1(C)C)C1CCC2(C)C3=C(CC[C@]12C)[C@@]1(C)CC[C@H](O)C(C)(C)C1CC3 (stereo not given in full)
-- reply > 100 µM

-- ask Supply TGI value. Item: CN(CCNC(=O)c1c[nH]c2c1Cc1ccccc1-2)CCNC(=O)c1c[nH]c2c1Cc1ccccc1-2
-- reply > 100 µM

* * *

I'd be grateful if you could share measured TGI for these entries.
system: 786-0 renal; test: NCI tumour cell line growth inhibition, 48 h

-- ask Indicate the recorded TGI value for this molecule: CCCCCCCCCCCc1c(O)c(=O)c2c(oc3c(=O)c(CCCCCCCCCCC)c(O)c(=O)c3n2-c2ccc(N(C)C)cc2)c1=O
-- reply 33.9 µM

-- ask Tell me TGI reported for O=C(SCc1cccc2ccccc12)c1ccc(Cl)cc1
-- reply > 100 µM

-- ask Respond only with TGI recorded for COc1cc2oc3c(c(=O)c2c(O)c1/C=C/C(C)C)C(C=C(C)C)Oc1cc(O)ccc1-3 (stereo unspecified)
-- reply 30.6 µM

-- ask Assign TGI to the following record: O=[N+]([O-])c1cc([N+](=O)[O-])c(Cl)cc1Cl
-- reply 3.21 µM

-- ask Please indicate TGI recorded for COc1ccccc1C(=O)NCC1CCCN2CCCCC12 (stereo unspecified)
-- reply > 100 µM

-- ask Recall and state the measured TGI for COc1ccc(C(=O)C#Cc2c[nH]c(=O)[nH]c2=O)cc1 .
-- reply 25 µM

-- ask Supply reported TGI belonging to this molecule: Nc1nc(N)c2nc3c(nc2n1)CCCCCCCCCC3
-- reply > 100 µM

-- ask Quote TGI reported for Cc1cc(Cl)ccc1C(=O)c1ccc2ccccc2c1C(=O)O please.
-- reply > 100 µM

-- ask Note TGI for the molecule shown: NC(Cc1ccc2nc3c4ccccc4c(=O)cc-3oc2c1)C(=O)O (stereo unspecified)
-- reply > 100 µM

-- ask State its TGI: O=c1c2cc3c(cc2c2cccc4c2n1CCC4)OCO3
-- reply > 100 µM

-- ask Using known records, supply TGI for CCOC(=O)/C=C(\C(=O)OCC)n1cc(C)c(=O)n(Cc2cnnn2COCCOC(C)=O)c1=O
-- reply 14.9 µM

-- ask Read the entry NC(=O)c1sc(-n2cnc3cc(C(F)(F)F)ccc32)cc1OCc1ccccc1Br and write its reported TGI.
-- reply > 25 µM

-- ask Read off the recorded TGI for Cc1ccc(-n2nnnc2-c2cnc(N3CCOCC3)nc2-c2cccc(C(F)(F)F)c2)cc1
-- reply > 50 µM

-- ask Assign TGI to the following record: COc1ccc(C2C(=O)c3c(OC)cc(OC)cc3OC2c2cccnc2)cc1 (stereo unspecified)
-- reply > 100 µM

-- ask For C[C@H](CCC1SC1(C)C)C1CCC2(C)C3=C(CC[C@]12C)[C@@]1(C)CC[C@H](O)C(C)(C)C1CC3 (stereo partly specified) , write its TGI.
-- reply > 100 µM

-- ask For NC(CSSCC(N)C(=O)O)C(=O)O (stereo unspecified) , write its TGI.
-- reply > 100 µM

-- ask Assign TGI to the following record: CCOC(=O)c1c(SC(=O)c2ccc(OC)cc2)n(-c2ccccc2)c(=S)n(-c2ccccc2)c1=O
-- reply > 100 µM

-- ask Respond only with TGI recorded for COC(=O)C(C(=O)OC)C(Br)C(Br)C(Br)c1ccccc1 (stereo unspecified)
-- reply 25.3 µM

-- ask Specify TGI for CC(=O)c1ccc(NC(=O)C(=O)C(C#N)CC(C)(C)C=O)cc1 (stereo unspecified) and stop.
-- reply > 100 µM

-- ask Please list TGI recorded for the molecule CCN1C(=NCCO)NS(=O)(=O)c2ccccc21
-- reply > 100 µM

-- ask Kindly indicate its recorded TGI. Item: O=C(NCCCl)SCCO
-- reply > 100 µM

* * *

system: NCI-H522 lung; test: NCI tumour cell line growth inhibition, 48 h
property_label: TGI (µM)
# output: bare number, implied unit µM

-- ask Report TGI for COCCOCCOCc1n(Cc2ccc3ccccc3n2)c2ccccc2[n+]1Cc1ccc2ccccc2n1
-- reply 11.1

-- ask Supply TGI value. Item: Cc1ccc(C2NC(=O)c3ccccc3N2)c(C)c1 (configuration not stated)
-- reply 4.91

-- ask For the compound CC12CCC(CC1)C(C)(C)O2 , give its reported TGI.
-- reply 77.3

* * *

test system: NCI-H460 lung
Please answer using one outcome listed in T for active, F for inactive

-- ask What outcome does the record of this test show for COc1cc(Cl)cc(-c2nn(-c3cccc(NC(=O)Nc4ccc(Cl)c(Cl)c4)c3)cc2-c2ccncc2)c1 ?
-- reply F

-- ask Can you look up the reported call for CN1CCN(c2nc(-c3csc(-c4cccs4)n3)cc3ccccc23)CC1 for me?
-- reply F

-- ask What was the test verdict on COc1ccc(CCN2CCC(CN(C)Cc3cnn(-c4ccccc4)c3)CC2)cc1 ?
-- reply F

-- ask Just curious, what result did CC(C)(C)OC(=O)NCc1cccc(N=C=S)c1 get here?
-- reply F

-- ask Recorded test outcome, item COc1cnc2c(c1)C(=O)c1c-2n(CCCN2CCC(O)CC2)c(=O)c2cc(Cl)ccc12
-- reply T

* * *

system: UACC-62 melanoma; test: NCI tumour cell line growth inhibition, 48 h; in the data active means GI50 below about 0.43 µM; inactive means the rest
Pick one: True (active), False (inactive)

-- ask // return assay outcome for COCCOCCOCc1n(Cc2ccc3ccccc3n2)c2ccccc2[n+]1Cc1ccc2ccccc2n1
-- reply True

-- ask Recorded test outcome, item NC(=O)c1sc(-n2cnc3cc(C(F)(F)F)ccc32)cc1OCc1ccccc1Br
-- reply False

-- ask For this compound, state the assay outcome: N#CC(C#N)=C/C=C(\Sc1ccc(F)cc1Cl)c1ccc(Cl)cc1
-- reply False

-- ask Query: recorded result category for Cc1cc(O)c(C2=NN(c3ccc(S(N)(=O)=O)cc3)C(/C=C/c3ccccc3)C2)cc1Cl (configuration not stated) in this test
-- reply False

-- ask Per the assay record, what outcome was assigned to O=Cc1ccc(-c2ccc(-c3nc4ccccc4s3)cc2)s1 ?
-- reply False

-- ask Which outcome was entered for the compound O=C1CC/C(=C/COc2cc(=O)oc3ccccc23)O1 in this test?
-- reply False

-- ask Query: recorded result category for CC(=O)/C=C/c1ccc(OCc2ccc(Cl)cc2)cc1 in this test
-- reply False
